- ASSAYED TARGET: PAF receptor sites on rabbit platelet homogenate (Oryctolagus cuniculus, UniProt G1TEI7)
- Construct: specific PAF receptor sites on rabbit platelet homogenate; tissue Rockland, Inc., Gilbertsville, Pa; (rabbit blood mixture)
- Sequence (G1TEI7 1-342): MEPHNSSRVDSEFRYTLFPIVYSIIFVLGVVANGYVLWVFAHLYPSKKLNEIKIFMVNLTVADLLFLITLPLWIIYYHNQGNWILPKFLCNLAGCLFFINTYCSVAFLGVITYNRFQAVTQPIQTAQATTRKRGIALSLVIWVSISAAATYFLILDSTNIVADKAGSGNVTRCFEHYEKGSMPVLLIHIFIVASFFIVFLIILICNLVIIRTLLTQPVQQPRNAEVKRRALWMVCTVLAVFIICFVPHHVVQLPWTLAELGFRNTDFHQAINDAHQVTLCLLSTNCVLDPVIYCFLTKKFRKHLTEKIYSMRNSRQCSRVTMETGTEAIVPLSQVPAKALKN
- METHOD DESCRIPTION: platelet activating factor (PAF) receptor assay
- RUN PARAMETERS: radioligand 3H-PAF; constant used in Ki=(IC50)/[1+(L/Kd)]; 25° C., sodium-free buffer +0.25% BSA; read-out: Kd (dissociation constant)
- Procedure: The platelet activating factor (PAF) receptor assay tests the ability of a compound to compete with radiolabeled PAF for specific PAF receptor sites on rabbit platelet homogenate. […] The blood mixture is centrifuged at 514 g for 10 minutes. […] Protein concentration of the suspension is determined by a Bio-Rad assay. […] The reaction tubes are incubated at 25° C. for 45 minutes. […] The vial is capped, vortexed and counted for 3H. Percent specific binding is calculated using the formula […]
REPORTED METRIC: pKd
Answers are plain numbers, as −log10 of the molar value.

The compound listed as CCCCCCCCCCCCCCCCOCC(COP(=O)([O-])OCC[N+](C)(C)C)OC(C)=O (stereo not shown) shows pKd equal to 9.08

Data provenance: patent US5322847A
